Each entry below carries its reported PBM E-score.
- targetSystem: Pdr3 (UniProt P33200)
- Sequence: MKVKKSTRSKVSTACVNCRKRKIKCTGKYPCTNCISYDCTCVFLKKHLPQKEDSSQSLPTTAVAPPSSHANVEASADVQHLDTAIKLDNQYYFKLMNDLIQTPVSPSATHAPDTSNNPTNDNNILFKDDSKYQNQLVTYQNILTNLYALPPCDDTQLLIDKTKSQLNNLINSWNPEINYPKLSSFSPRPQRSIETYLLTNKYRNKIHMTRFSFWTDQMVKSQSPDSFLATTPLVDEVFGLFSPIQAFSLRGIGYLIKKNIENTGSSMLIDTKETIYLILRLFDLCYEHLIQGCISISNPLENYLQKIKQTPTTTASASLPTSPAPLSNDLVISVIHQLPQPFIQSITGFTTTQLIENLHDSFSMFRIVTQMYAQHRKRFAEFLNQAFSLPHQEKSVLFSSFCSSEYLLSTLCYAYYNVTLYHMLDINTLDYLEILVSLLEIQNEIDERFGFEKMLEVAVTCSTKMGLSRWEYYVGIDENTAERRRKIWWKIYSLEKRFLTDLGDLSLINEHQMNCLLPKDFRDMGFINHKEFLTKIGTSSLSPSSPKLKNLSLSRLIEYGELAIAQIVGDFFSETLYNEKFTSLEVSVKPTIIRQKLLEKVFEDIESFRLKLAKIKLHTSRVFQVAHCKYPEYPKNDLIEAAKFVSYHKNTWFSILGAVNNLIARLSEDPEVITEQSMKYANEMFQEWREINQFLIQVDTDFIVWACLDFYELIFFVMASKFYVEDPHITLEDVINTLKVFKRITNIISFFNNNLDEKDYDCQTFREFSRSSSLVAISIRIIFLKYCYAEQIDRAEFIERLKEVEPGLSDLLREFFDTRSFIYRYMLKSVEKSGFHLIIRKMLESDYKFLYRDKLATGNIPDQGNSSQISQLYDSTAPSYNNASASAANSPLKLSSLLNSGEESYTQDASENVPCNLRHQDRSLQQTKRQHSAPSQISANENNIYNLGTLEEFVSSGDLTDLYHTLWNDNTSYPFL
- assayMethodText: PBM E-score (8-mer binding enrichment) (E-score (-0.5 to 0.5)); higher = stronger / more preferred TF binding
- runConditions: protein concentration: 200 nM; construct: GST-full length
Whole data set: some 33,000 sequences, median “E-score (-0.5 to 0.5)” near -0.035, cut for the highest 2% near 0.35. The entries come from a sample that favours the highest values as a whole.
No unit in the answer, only the number.

sequenceChain: CGGGATTA
PBM E-score: 0.404

For reference, reported PBM E-score for TCGGACCA stands at 0.292

// AGGGATCC : PBM E-score value = 0.196

# sequence CCGGAATC ; its PBM E-score = 0.471

The recorded PBM E-score for entry AATCCGGG equals 0.354

The sequence TCGAGGCA showed PBM E-score equal to -0.123

----------
- targetSystem: Pdr3 (UniProt P33200)
- Sequence: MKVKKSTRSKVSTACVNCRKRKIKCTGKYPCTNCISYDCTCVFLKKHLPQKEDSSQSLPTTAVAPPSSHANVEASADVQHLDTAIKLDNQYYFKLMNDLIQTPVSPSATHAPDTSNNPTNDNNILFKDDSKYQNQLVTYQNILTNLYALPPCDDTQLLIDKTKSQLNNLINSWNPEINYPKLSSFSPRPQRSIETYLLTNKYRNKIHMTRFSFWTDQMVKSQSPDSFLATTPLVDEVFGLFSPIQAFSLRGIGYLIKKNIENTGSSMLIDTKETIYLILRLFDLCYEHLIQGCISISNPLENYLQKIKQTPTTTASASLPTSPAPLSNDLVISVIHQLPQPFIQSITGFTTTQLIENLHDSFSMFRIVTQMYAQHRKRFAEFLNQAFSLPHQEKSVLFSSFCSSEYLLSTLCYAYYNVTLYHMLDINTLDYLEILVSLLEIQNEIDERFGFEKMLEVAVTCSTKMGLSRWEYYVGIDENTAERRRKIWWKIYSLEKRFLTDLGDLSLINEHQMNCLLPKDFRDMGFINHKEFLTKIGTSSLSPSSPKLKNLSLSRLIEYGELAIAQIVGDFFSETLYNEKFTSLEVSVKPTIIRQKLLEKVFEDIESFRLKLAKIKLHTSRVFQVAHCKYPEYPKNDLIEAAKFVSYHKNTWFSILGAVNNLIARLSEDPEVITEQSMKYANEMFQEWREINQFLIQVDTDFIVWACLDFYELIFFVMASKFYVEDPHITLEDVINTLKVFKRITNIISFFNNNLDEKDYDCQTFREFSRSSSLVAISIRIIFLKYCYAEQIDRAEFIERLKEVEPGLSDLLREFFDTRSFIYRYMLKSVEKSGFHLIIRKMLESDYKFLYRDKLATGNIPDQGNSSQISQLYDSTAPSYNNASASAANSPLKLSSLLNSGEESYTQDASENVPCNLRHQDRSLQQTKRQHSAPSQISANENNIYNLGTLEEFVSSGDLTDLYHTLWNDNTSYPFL
- assayMethodText: PBM E-score (8-mer binding enrichment) (E-score (-0.5 to 0.5)); higher = stronger / more preferred TF binding
- runConditions: protein concentration: 200 nM; construct: GST-full length
Whole data set: some 33,000 sequences, median “E-score (-0.5 to 0.5)” near -0.035, cut for the highest 2% near 0.35. The list comes from a sample in which the highest values are over-represented; it also holds close analogues and randomly drawn sequences.
PBM E-score reference
# output: bare number, no unit

Examples from the recorded data:
sequenceChain: GCTCGGAA
PBM E-score: 0.413
--
sequenceChain: GTTCCGGA
PBM E-score: 0.475
--
sequenceChain: CCTCGGAA
PBM E-score: 0.442
--
sequenceChain: ACTCGGAC
PBM E-score: 0.305
--
sequenceChain: ACGGAACG
PBM E-score: 0.48

In plain terms, ATGGAACG has a documented PBM E-score of 0.0401

PBM E-score measured on AGCGGGAC = 0.185

Numbers sourced from the supplement of paper PMC3334620.
